- Test system: splenocytes from HLA-A11/K^b transgenic mice
- PROCEDURE_SUMMARY: IFN-γ ELISPOT of peptide-stimulated splenocytes from DNA plasmid-immunized mice
- Type: cell-based, mouse
- RUN_PARAMETERS: splenocytes of mice immunized i.m. with plasmid pE3/19K/HPV18E6E7, stimulated with the peptide; FIG. 7A

PRIMARY_SEQUENCE	TARGET_UNDER_TEST	induction of IFN-γ secretion
VVYRDSIPH (listed as Human papillomavirus) [54-62 of HPV 18 E6]	splenocytes from HLA-A11/K^b transgenic mice	induced IFN-γ secretion
SIPHAACHK (listed as Human papillomavirus) [peptide derived from HPV 18]	splenocytes from HLA-A11/K^b transgenic mice	not
RAHYNIVTF (listed as Human papillomavirus) [control peptide]	splenocytes from HLA-A11/K^b transgenic mice	not
SIINFEKL (listed as Mus musculus)	splenocytes from HLA-A11/K^b transgenic mice	induced IFN-γ secretion
ATLQDIVLH (listed as Human papillomavirus) [peptide derived from HPV 18]	splenocytes from HLA-A11/K^b transgenic mice	not
